The entries below are paired with their reported inhibition.
Target: Disintegrin and metalloproteinase domain-containing protein 17 (Homo sapiens)
Sequence (P78536 whole entry, the tested form may be a part): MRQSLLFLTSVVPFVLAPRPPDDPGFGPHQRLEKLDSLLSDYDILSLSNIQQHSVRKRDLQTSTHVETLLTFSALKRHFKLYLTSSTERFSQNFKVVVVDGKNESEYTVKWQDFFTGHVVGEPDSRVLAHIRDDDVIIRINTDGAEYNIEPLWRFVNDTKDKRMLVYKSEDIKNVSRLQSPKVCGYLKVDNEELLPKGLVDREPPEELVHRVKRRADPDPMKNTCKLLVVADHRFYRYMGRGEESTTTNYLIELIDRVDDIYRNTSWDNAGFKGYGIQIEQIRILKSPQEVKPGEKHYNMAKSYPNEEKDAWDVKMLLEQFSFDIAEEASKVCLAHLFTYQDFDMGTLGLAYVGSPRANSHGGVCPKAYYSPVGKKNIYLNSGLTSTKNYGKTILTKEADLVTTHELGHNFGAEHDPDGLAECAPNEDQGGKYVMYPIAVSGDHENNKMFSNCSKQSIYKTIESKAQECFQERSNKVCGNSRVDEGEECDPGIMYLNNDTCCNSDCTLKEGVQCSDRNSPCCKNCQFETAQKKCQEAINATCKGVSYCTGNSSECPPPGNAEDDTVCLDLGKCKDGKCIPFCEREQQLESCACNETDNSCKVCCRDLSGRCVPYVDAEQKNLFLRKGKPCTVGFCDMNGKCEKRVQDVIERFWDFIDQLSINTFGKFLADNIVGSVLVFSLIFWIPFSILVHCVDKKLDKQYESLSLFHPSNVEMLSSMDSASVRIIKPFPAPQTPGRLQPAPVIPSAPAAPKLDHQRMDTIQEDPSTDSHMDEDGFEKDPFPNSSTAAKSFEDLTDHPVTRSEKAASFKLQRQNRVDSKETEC
Assay: Inhibition of LPS-stimulated TNF production in THP cells at 1 uM
Assay type: functional, cell-based
Numeric only. Scale: %

SMILES STRUCTURE: CC1(C)SCCN(S(=O)(=O)c2ccc(OCC#CCCN)cc2)[C@H]1C(=O)NO
inhibition [%]: 0

Task item: Field request: inhibition | item: `CC(C)(C)OC(=O)NCCC#CCOc1ccc(S(=O)(=O)N2CCSC(C)(C)[C@@H]2C(=O)NO)cc1`
Reply: 14

Task item: Field request: inhibition | item: `CC(C)(C)OC(=O)NCCCC#CCOc1ccc(S(=O)(=O)N2CCSC(C)(C)[C@@H]2C(=O)NO)cc1`
Reply: 5

Task item: Field request: inhibition | item: `CCCCOc1ccc(S(=O)(=O)N2CCSC(C)(C)[C@@H]2C(=O)NO)cc1`
Reply: 11
